# System: EGFR activation (granule formation) in A549-EGFRB cells
# assay method text: EGFRB assay, granule count readout
# Format: cell-based
# condition summary: read-out: IC50 or EC50 (nM) Granule count
Below is a list of entries, each paired with its recorded log10 IC50 value.
observable: log10 IC50 (log10 of the value in nM)

* CO[C@@H]1[C@H](N(C)C(=O)c2ccccc2)C[C@H]2O[C@]1(C)n1c3ccccc3c3c4c(c5c6ccccc6n2c5c31)C(=O)NC4 [PKC 412] | 3.11
* COc1cc2ncnc(Nc3cccc(Br)c3)c2cc1OC [PD 153035] | 1.96
* CC[C@@]1(O)C(=O)OCc2c1cc1n(c2=O)Cc2cc3ccccc3nc2-1 [Camptothecin, camptothecin] | 2.86
* CS(=O)(=O)CCNCc1nc(-c2ccc3ncnc(Nc4ccc(OCc5cccc(F)c5)c(Cl)c4)c3c2)cs1 [GW 583340] | 3.30
* COc1cc2ncnc(Nc3cccc(Cl)c3)c2cc1OC [Tyrphostin AG 1478] | 1.81
* CS(=O)(=O)CCNCc1ccc(-c2ccc3ncnc(Nc4ccc(OCc5cccc(F)c5)c(Cl)c4)c3c2)o1 [Lapatinib, lapatinib] | 2.77

Data provenance: paper PMC3615554
